The compounds listed here are annotated with their GI50.
Test system: OVCAR-8
Test: NCI tumour cell line growth inhibition, 48 h
The source made the active and inactive calls. No stated cut-off is given here; in the data, active = GI50 up to about 1.1 µM and inactive = higher.
MEASURE: GI50

* Cc1nc(C(N)=S)sc1C(=O)C/C(=N/N)C(=O)Nc1ccc(Cl)cc1 | 84.1 µM (inactive)
* COc1cc2c(c(OC)c1OC)C(=O)[C@@H]1[C@H]2N1C(N)=O | > 100 µM (inactive)
* CC(=O)OCC1OC(n2c(-c3ccc(C)cc3)cc(-c3ccccc3)c(C#N)c2=O)C(OC(C)=O)C(OC(C)=O)C1OC(C)=O (stereo unspecified) | > 100 µM (inactive)
* CCCCc1c2c(nc3c1CCCC3O)/C(=C/c1ccccc1)CCC2 (stereo unspecified) | 32 µM (inactive)
* COc1cc2c(cc1-c1coc3cc(O)ccc3c1=O)OCO2 [CUNEATIN] | 19.3 µM (inactive)
* O=c1ccn(C2OC(CO)C(O)C2[Se]c2ccccc2)c(=O)[nH]1 (stereo unspecified) | > 100 µM (inactive)
* C=C(C)C#CC(O)(C(=O)OC1CCN(C)CC1)C(C)C (stereo unspecified) | > 100 µM (inactive)
* COc1cccc(N(CN2CC=CC2=O)C(C)=O)c1 | > 100 µM (inactive)
* CCN(CC)CCC(=O)c1ccc(Oc2ccc(F)cc2)cc1 | 22.9 µM (inactive)
* O/N=C1\SC(=N\O)/C(=N/O)S\C1=N/O | > 100 µM (inactive)
* C/N=c1\sc2nc(C#N)c(C#N)nc2n1C | > 10 µM (inactive)

----------
Test system: HOP-18
Assay: NCI tumour cell line growth inhibition, 48 h
Active and inactive are the calls of the source. Cut-off read from the data, not from the text of the source: active = GI50 up to about 1.1 µM and inactive = higher.
MEASURE: GI50

* CC(C)(Oc1ccc(C(=O)c2ccc(Cl)cc2)cc1Cl)C(=O)Nc1c(Cl)cccc1Cl | > 100 µM (inactive)
* CN(C(=O)c1cccs1)C(=S)N1CCN(c2ccccn2)CC1 | > 100 µM (inactive)
* N=c1n(CC(=O)NC23CC4CC(CC(C4)C2)C3)c2ccccc2n1CC(=O)NC12CC3CC(CC(C3)C1)C2 | 2.03 µM (inactive)
* Cc1cc(N(CCC#N)CCC#N)ccc1/C=C(\NC(=O)/C=C/c1ccccc1)C(=O)Nc1ccc(Cl)cc1 | > 100 µM (inactive)
* CC(=O)OCC1OC(n2cccnc2=O)C(OC(C)=O)C1OC(C)=O (stereo unspecified) | > 100 µM (inactive)
* CC1(C)OC(COP2OCCO2)[C@H](COP2OCCO2)O1 (stereo partly specified) | > 100 µM (inactive)
* Cc1ccc(C)c2c1C1CCCCC3(OCCCO3)C21O (stereo unspecified) | 17.1 µM (inactive)
* OC12c3ccccc3C3CCC4(OCCO4)C3C1c1ccccc12 (stereo unspecified) | > 100 µM (inactive)
* CCCCc1c2c(nc3c1CCCC3O)/C(=C/c1ccccc1)CCC2 (stereo unspecified) | 24.4 µM (inactive)
* O=C(N/N=C/c1ccccc1O)N/N=C/c1ccccc1O | > 100 µM (inactive)
* CN1Nc2ccccc2CC1=O | > 100 µM (inactive)

----------
System: COLO 205
Assay: NCI tumour cell line growth inhibition, 48 h
Active and inactive are the calls of the source. Rule as the data show it: active = GI50 up to about 1.1 µM and inactive = higher.
MEASURE: GI50

• CC(=NNC(=S)Nc1cccc(C)c1)c1cccc(C(C)=NNC(=S)Nc2cccc(C)c2)n1 = 8 µM (inactive)
• CC(=O)NCCCCNCCCNC(C)=O = > 100 µM (inactive)
• O=CN(O)CC(=O)O = > 100 µM (inactive)
• O=C(O)CCCSc1ccccc1 = > 100 µM (inactive)
• COc1cccc2c1C(=O)c1ccc3cc(CCl)cc(O)c3c1C2=O = 0.203 µM (active)
• COc1ccccc1C(=O)c1ccc2ccccc2c1 = 20.4 µM (inactive)
• COC(=O)NCCc1n[nH]c2c1C(=O)C=C(Nc1ccccc1OC)C2=O = 24.3 µM (inactive)
• O=C(O)c1nnsc1COCc1ccccc1 = > 100 µM (inactive)
• C/N=c1\sc2nc(C#N)c(C#N)nc2n1C = 16.4 µM (inactive)
• O=C(N/C(=C\c1ccccc1Cl)c1nc2ccccc2[nH]1)c1ccccc1 = 34.6 µM (inactive)
• CN(C)CCN(C)CCC(=O)/C=C/c1ccccc1 = 18.7 µM (inactive)
• CCCCc1c2c(nc3c1CCCC3O)/C(=C/c1ccccc1)CCC2 (configuration not stated) = 17.9 µM (inactive)

----------
Tested on: SK-MEL-28
Test: NCI tumour cell line growth inhibition, 48 h
Calls of active or inactive are those of the source. Rule as the data show it: active = GI50 up to about 1.1 µM and inactive = higher.
Listed next: entries and their corresponding GI50.
MEASURE: GI50

- C=C(C)C#CC(O)(C(=O)OC1CCN(C)CC1)C(C)C (stereo not given): > 100 µM (inactive)
- COc1cccc(C(=O)C2C(=O)N(C)CCc3ccccc32)c1OC (stereo not given): > 100 µM (inactive)
- CCCCCC(=O)OC[n+]1ccc2c(C)c3[nH]c4ccccc4c3c(C)c2c1: 1.43 µM (inactive)
- Cc1onc(-c2c(F)cccc2Cl)c1C(=O)N[C@@H]1C(=O)N2[C@@H]1SC(C)(C)[C@@H]2C(=O)O: > 100 µM (inactive)
- O=C(O)c1ccc2c(c1)C(=O)N(c1ccc(S(=O)(=O)c3ccc(N4C(=O)c5ccc(C(=O)O)cc5C4=O)cc3)cc1)C2=O: > 100 µM (inactive)

----------
Tested on: OVCAR-3
Test: NCI tumour cell line growth inhibition, 48 h
Active and inactive are the calls of the source. No stated cut-off is given here; in the data, active = GI50 up to about 1.1 µM and inactive = higher.
MEASURE: GI50

* c1cc2nsnc2c2c[nH]cc12 | > 100 µM (inactive)
* O=C1CCCC(=O)N1n1c(Cc2ccccc2)n[nH]c1=O | > 100 µM (inactive)
* C#CCOCCCC(=O)O | > 100 µM (inactive)
* NCCCCC(N)C(=O)N1CCN(c2nc(N3CCCC3)c3nc(Cl)c(NCc4ccccc4)nc3n2)CC1 (stereo not given) | 18.9 µM (inactive)
* CC(=O)c1ccc(NC(=O)C(=O)CC(=O)c2sc(-n3nc(-c4ccccc4)cc3-c3ccccc3)nc2C)cc1 | > 100 µM (inactive)
* c1ccc(C2=C(c3ccccc3)P(c3ccccc3)C2)cc1 (stereo not given) | 78.7 µM (inactive)
* CSc1c(C#N)c(O)nc(N)c1C(=O)Nc1ccc(Cl)cc1 | 14.9 µM (inactive)
* O/N=C1\SC(=N\O)/C(=N/O)S\C1=N/O | > 100 µM (inactive)
* C=C1c2[nH]c3ccccc3c2C2C(CC)C1CCN2C (stereo not given) | > 100 µM (inactive)
* COc1cc(C2c3cc4c(cc3[C@@H](Nc3ccc(N(C)C)cc3)[C@H]3COC(=O)C23)OCO4)cc(OC)c1O (stereo not given in full) | 8.04 µM (inactive)

----------
Tested on: NCI-H23
Experiment: NCI tumour cell line growth inhibition, 48 h
Counter-ions that a name gives are not always drawn. Calls of active or inactive are those of the source. Rule as the data show it: active = GI50 up to about 1.1 µM and inactive = higher.
Labels: active, inactive

- CC(=O)N1N=C(c2c(O)ccc3ccccc23)CC1c1ccc(Cl)cc1 (configuration not stated): inactive
- NC(=O)C1=C(O)C[C@@H]2CC3Cc4cccc(O)c4C(=O)C3=C(O)[C@]2(O)C1=O (some centres not stated): inactive
- O=S(=O)(O)c1c(Cl)cc(O)c2ncccc12: inactive
- Clc1ccc2sc(-n3ccc4ccccc43)nc2c1: inactive
- COc1ccccc1/C=C\c1cnnc2ccccc12: inactive
- CN1C(=O)CC2(C)c3cc(C=O)ccc3N(C)C12 (configuration not stated): inactive
- NCCCCC(N)C(=O)N1CCN(c2nc(N3CCCC3)c3nc(Cl)c(NCc4ccccc4)nc3n2)CC1 (configuration not stated): inactive
- OC12c3ccccc3C1(N1CCOCC1)CCCCC21OCCCO1 (configuration not stated): inactive
- O=C(CC(=O)c1ccccc1NC1=Cc2ccccc2C(=O)C1=O)C(=O)NC1=C(Cl)C(=O)c2ccccc2C1=O: inactive
- C#CCOCCCC(=O)O: inactive
- CN1CC2CC(C1)c1cccc(=O)n1C2 (configuration not stated): inactive
- CC1(C)N=C(N)N=C(N)N1c1cccc(C(=O)Nc2ccc(S(=O)(=O)F)cc2)c1: inactive
- O=C1C(Cl)C2(CC(/C=C/c3ccccc3O)=NN2c2cccc(S(=O)(=O)O)c2)N1c1nc2ccccc2s1 (configuration not stated): inactive
- Cn1c(-c2ccco2)ccc1-c1ccc(C=O)o1: inactive
- N#Cc1c(N2CCOCC2)[nH]c(=O)c(C(c2c(Cl)cccc2Cl)c2c(O)c(C#N)c(N3CCOCC3)[nH]c2=O)c1O: inactive
- O=C1Cc2nc(CO)c(CO)c(CO)c2CO1: inactive
- COP1(=O)Oc2ccccc2C(=O)C(C(F)(F)F)(C(F)(F)F)O1 (configuration not stated): inactive
- COc1cccc2c1C(=O)c1ccc3cc(CCl)cc(O)c3c1C2=O: active
- Oc1ccc(C(O)C2CCCCN2)cc1O (configuration not stated) [RIMITEROL HYDROBROMIDE]: inactive
- COc1ccc(NC(=O)C2C(=O)N(c3ccc(OC)cc3)C(=O)/C2=N\NC(N)=O)cc1 (configuration not stated): inactive
- COC1=CC2(CC(OC)=C1OC)OC21COc2ccccc2C1=O (configuration not stated): inactive
- Nc1nc(=O)[nH]c2c1cnn2Cc1ccccc1: inactive
- C/C(Cl)=N/OC(=O)Nc1ccc(F)c([N+](=O)[O-])c1: inactive
- COC(=O)C(N)CCCC(N)C(=O)NC(C)C(=O)NC(CCC(=O)NCCNCCNc1c2ccccc2nc2cccc([N+](=O)[O-])c12)C(N)=O (configuration not stated): inactive
- O=C(CN1CCCC1)Nc1ccc2sc3ccccc3c(=O)c2n1: inactive
- CCOC(=O)C(=Cc1ccc(Oc2ccccc2)cc1)C(=O)OCC: inactive
- COc1ccccc1NC(=S)N/N=C1\C(=O)Nc2ccccc21: inactive
- C(=N\CCCN1CCN(CCC/N=C/c2cccc3ccccc23)CC1)/c1cccc2ccccc12: inactive
- CC(=O)C(=N\Nc1ccc(Cl)cc1)/C(C)=N/c1ccc(C)cc1: inactive
- COc1cc(/C=C/C(=O)OCCc2ccccc2)ccc1O: inactive
- Cc1cc(C)nc(NS(=O)(=O)c2ccc(Nc3c4ccccc4nc4c(C(=O)NC(CO)(CO)CO)cccc34)cc2)n1: inactive
- CCOc1ccccc1NC(=O)CSc1nnc(Cc2ccccc2)o1: inactive
- COC(=O)C1CCC(N2C(=O)CCC2C(=O)OC)=N1 (configuration not stated): inactive
- COC(=O)[C@H](Cc1ccccc1)NC(=O)OCC1OC(n2cc(C)c(=O)[nH]c2=O)CC1N=[N+]=[N-] (some centres not stated): inactive
- Cc1cc(-c2nc3cc(F)ccc3s2)ccc1NC(=O)[C@@H](N)CCCCN: inactive
- CC(=O)c1c(CO[N+](=O)[O-])[n+]([O-])c2ccccc2[n+]1[O-]: inactive
- O=C1c2c[nH]nc2C(c2ccccc2)N1c1ccccc1 (configuration not stated): inactive
- CC(=O)O[C@H]1C[C@H]2C(=S)Nc3ccccc3C(=S)N2C1: inactive
- O=C(/C(=C\I)c1ccccc1)c1ccccc1: inactive
- Cc1ccc(-c2cc(=O)c3cc(C)c(C)c(C(=O)O)c3o2)cc1C: inactive
- COc1cc2c(c(OC)c1OC)C(=O)[C@@H]1[C@H]2N1C(N)=O: inactive
- Cc1c(C(=O)CC(=O)C(=O)Nc2cccc(C(F)(F)F)c2)[n+]([O-])c2ccccc2[n+]1[O-]: inactive
